# Tested on: NCI-H23
# PROTOCOL DETAILS: NCI tumour cell line growth inhibition, 48 h
Activity calls are given as the source filed them. No stated cut-off is given here; in the data, active = GI50 up to about 1.1 µM and inactive = higher.
MEASURED ATTRIBUTE: GI50

Worked examples follow.
| COMPOUND | GI50 |
| --- | --- |
| CCCCCC(/C=N/N)C(O)(C(F)(F)F)C(F)(F)F (stereo not given) | 3.58 µM (inactive) |
| C=C(C)CC(C)(c1cc2ccccc2n1C)N1CCOCC1 (stereo not given) | 55.1 µM (inactive) |
| O=C(O)C(/C=C/c1ccccc1)c1ccccc1 (stereo not given) | > 100 µM (inactive) |
| Cc1sc2nc3n(sc4nc5sc(C)c(C)c5c(=O)n43)c(=O)c2c1C | > 100 µM (inactive) |

Could you now look at the following compound, please?
Req: I would be grateful if you could share the reported GI50 for `O=c1[nH]nc(NCCc2ccccc2)c2nnn(Cc3ccccc3)c12` .
Resp: > 100 µM (inactive)

----------
# System: OVCAR-3
# PROTOCOL DETAILS: NCI tumour cell line growth inhibition, 48 h
The source made the active and inactive calls. Cut-off read from the data, not from the text of the source: active = GI50 up to about 1.1 µM and inactive = higher.
MEASURED ATTRIBUTE: GI50

// below: answered compounds
| COMPOUND | MEASURED ATTRIBUTE | READING |
| --- | --- | --- |
| CCOC(=O)COc1ccc(OC)c2c1C(=O)CCC2 | GI50 | > 100 µM (inactive) |
| CN(C)CC1COC2Cc3ccccc3C1O2 (stereo unspecified) | GI50 | > 100 µM (inactive) |
| CC(=O)OCC1OC(n2c3c(c(-c4cccc5ccccc45)c(C#N)c2=S)CCCC3)C(OC(C)=O)C(OC(C)=O)C1OC(C)=O (stereo unspecified) | GI50 | > 100 µM (inactive) |
| Cc1ccc(C)c(NC(=O)CC/C(=N\NC(=O)c2c(O)ccc3ccccc23)C(C)C(=O)c2ccc(O)cc2)c1 (stereo unspecified) | GI50 | 23.3 µM (inactive) |
| CCOC(=O)C(=O)Nc1ccc(Cl)cc1C | GI50 | > 100 µM (inactive) |

Next compound, please.
Req: Which GI50 is listed for CC1=C(C#N)C2C(=C(N)Oc3ccccc32)C(N)=N1 (stereo unspecified) ?
Resp: 44.8 µM (inactive)

----------
# System: M14
# PROTOCOL DETAILS: NCI tumour cell line growth inhibition, 48 h
Active and inactive are the calls of the source. Cut-off read from the data, not from the text of the source: active = GI50 up to about 1.1 µM and inactive = higher.
Pick one and only one: true (1) = active, false (0) = inactive

| MOLECULE | MEASURED ON | CLASS NAME |
| --- | --- | --- |
| Cc1ccc(-c2c(C#N)c(S)n(NS(=O)(=O)c3ccc(C)cc3)c(=O)c2C#N)cc1 | M14 | false (0) |

Req: Look up the recorded call for `[O-][n+]1c(-c2ccccc2)oc2ccccc21` in this test.
Resp: false (0)

----------
# System: K562
# PROTOCOL DETAILS: NCI tumour cell line growth inhibition, 48 h
Activity calls are given as the source filed them. Rule as the data show it: active = GI50 up to about 1.1 µM and inactive = higher.
In this section, each of the compounds is paired with its reported GI50.

# annotated cases, reported GI50 shown
| COMPOUND | READING |
| --- | --- |
| COc1cc(/C=C2\N=C(c3ccccc3)N(c3nc4ccc(Sc5ccccc5)cc4[nH]3)C2=O)ccc1O | 11.7 µM (inactive) |
| CCN(CC)c1ccc(/C=C/C2=NN(c3cccc(S(=O)(=O)O)c3)C3(C2)C(Cl)C(=O)N3c2nc3ccccc3s2)cc1 (configuration not stated) | 5.55 µM (inactive) |
| CN(C)c1nncc2[nH]cnc12 | > 100 µM (inactive) |
| CCOC(=O)COc1ccc(OC)c2c1C(=O)CCC2 | > 100 µM (inactive) |
| CCC1c2[nH]c3ccccc3c2C[C@H]2C(=O)NC(C)C(=O)N12 (some centres not stated) | > 100 µM (inactive) |
| [O-][n+]1c(-c2ccccc2)oc2ccccc21 | 11.9 µM (inactive) |

Req: Which measured GI50 value corresponds to `CC(C)(C)[Si](Nc1ccccc1)(c1ccccc1)c1ccccc1` ?
Resp: 8.26 µM (inactive)

Req: Which GI50 is listed for `Cc1ccc(NC(=O)CSC(N)=O)cc1C` ?
Resp: > 100 µM (inactive)

Req: What measured GI50 goes with Cc1ccc(OCC2=NN3C(=O)/C(=C\c4ccc([N+](=O)[O-])o4)SC3N2)cc1 (configuration not stated) ?
Resp: 0.711 µM (active)

Req: Item `COc1cc2c(cc1OC)[C@H](C)N1CCc3cc(OC)c(OC)cc3[C@@H]1C2` has what recorded GI50?
Resp: > 100 µM (inactive)

Req: Need GI50, item `COc1ccc(Cn2nc(OCc3ccccc3)c3cc([N+](=O)[O-])ccc32)cc1`
Resp: > 100 µM (inactive)

----------
# Tested on: BT-549
# PROTOCOL DETAILS: NCI tumour cell line growth inhibition, 48 h
The source made the active and inactive calls. No stated cut-off is given here; in the data, active = GI50 up to about 1.1 µM and inactive = higher.
Output constraint: value belongs to yes (active), no (inactive)

Example entries and their recorded answers appear below.
| COMPOUND | CLASS NAME |
| --- | --- |
| O=[N+]([O-])c1sc2ccc(Cl)cc2c1Nc1ccc(Cl)cc1 | no |
| CCC1c2[nH]c3ccccc3c2C[C@H]2C(=O)NC(C)C(=O)N12 (some centres not stated) | no |
| CCCCNc1nc(SC)nc2[nH]cnc12 | no |

Req: I would be grateful if you could indicate the recorded call for `Nc1ccccc1SCc1csc(-c2ccc(Cl)cc2)n1` .
Resp: no

Req: Recorded test outcome, item `O=P1(N(CCCl)CCCl)Oc2c(Cl)cc(Cl)c(Cl)c2Cc2c(Cl)c(Cl)cc(Cl)c2O1`
Resp: no

Req: Please state the recorded outcome for this compound: `CCOC(=O)c1nc2ccccc2nc1Oc1ccc(C(=O)OC)cc1`
Resp: no

Req: # lookup: test call for OCC1OC(Oc2cc(O)cc(/C=C\c3ccc(O)cc3)c2)C(O)C(O)C1O (configuration not stated)
Resp: no

Req: Which outcome was assigned to `O=C1c2ccccc2C(=O)c2c1ccc(C(=O)O)c2-c1ccc2ccccc2c1` in this test?
Resp: no

Req: // param item: CC(O)c1cc2c(s1)C(=O)c1c(C(C)O)csc1C2=O (configuration not stated) ; yields the recorded call
Resp: yes

Req: For C[C@H](CCC(=O)O)[C@H]1CC[C@H]2[C@@H]3CC[C@@H]4C[C@H](O)CC[C@]4(C)[C@H]3C[C@H](O)[C@]12C [DEOXYCHOLIC ACID] , which call appears in the assay record?
Resp: no

Req: Could you check what this test reported for `C1=N\c2ccc(cc2)/N=C\c2ccccc2OCc2cccc(n2)COc2ccccc2/1` ?
Resp: no

Req: For `COC(=O)/C=C(\S/C(=C(/c1ccc(OC)cc1)n1cc(C(=O)OC)c(C(=O)OC)n1)c1ccc(OC)cc1)C(=O)OC` , what call appears in the results of this test?
Resp: no

Req: Answer briefly: the call reported for `N#Cc1c(N)c2c(c(-c3ccccc3)c1-c1ccccc1)C(=O)N(O)C2=O` in this assay.
Resp: no

Req: Called result for `COc1ccc(/C=N/NC(=O)O)cc1`
Resp: no

Req: Which outcome was assigned to `O=C1C=CC(=O)C(CNc2ccc(C(=O)OC34CC5CC(CC(C5)C3)C4)cc2)=C1` in this test?
Resp: no

Req: Test call for this compound, please: C=C1C(=O)C2=CC1CCC(=O)C1(C)CCC(OC(C)=O)C(C)(C)C1CC2O (configuration not stated)
Resp: no

Req: Entry `c1csc(-c2cc(-c3ccsc3)c(-c3cccs3)s2)c1` : call = ?
Resp: no

----------
# Tested on: SF-268
# PROTOCOL DETAILS: NCI tumour cell line growth inhibition, 48 h
Activity calls are given as the source filed them. Cut-off read from the data, not from the text of the source: active = GI50 up to about 1.1 µM and inactive = higher.
MEASURED ATTRIBUTE: GI50

| COMPOUND | MEASURED ATTRIBUTE | READING |
| --- | --- | --- |
| Cc1cnc(Cl)nc1C(C#N)c1nc2ccccc2n1C (stereo unspecified) | GI50 | 29.9 µM (inactive) |
| O=C(O)c1ccccc1/C=N\N=C1NCCCCN1 | GI50 | > 100 µM (inactive) |
| O=Cc1cn(CCCCCCCCCCCCn2cc(C=O)c3ccccc32)c2ccccc12 | GI50 | > 100 µM (inactive) |
| CC1=C(C#N)C2C(=C(N)Oc3ccccc32)C(N)=N1 (stereo unspecified) | GI50 | 24.5 µM (inactive) |
| Cc1nc(Cl)c2sc(=S)n(-c3ccc(F)cc3)c2n1 | GI50 | 1.81 µM (inactive) |

Req: Entry `Oc1cc(-c2ccc(F)cc2)nc2ncc(Cl)cc12` : reported GI50 = ?
Resp: 67 µM (inactive)

Req: Dear colleague, I am looking for the recorded GI50 of the following compound: `Nn1c(S)nnc1C12CC3CC(CC(C3)C1)C2`
Resp: > 100 µM (inactive)

Req: Entry `COc1ccc(OC)c(-c2nc3n(c2/C=C2/C(=O)Nc4ccccc42)CCS3)c1` : reported GI50 = ?
Resp: 67.5 µM (inactive)

Req: Quick check: GI50 of O=C1Cc2c([nH]c3ccc([N+](=O)[O-])cc23)-c2ccccc2N1 [ALSTERPAULLONE] ?
Resp: 0.471 µM (active)

Req: For the compound `N#C/C(=C\c1cc(OCc2ccccc2)c(OCc2ccccc2)cn1)C(N)=O` , what GI50 is on record?
Resp: > 100 µM (inactive)

Req: Please report the recorded GI50 for `COC(=O)C1(Cc2ccccc2)Cc2ccccc2C1` .
Resp: 23.1 µM (inactive)
